# Tested on: Aspergillus fumigatus MOL-4
# protocol-text: In vivo oral antimycotic effectiveness, pulmonary aspergillosis
# Design: species or system mice (Albino Charles River, CD1 strain)
# settings: MOL4, 336 h, mice, oral at 0, 4, 24, 48 hours after nasal infection, read-out: PD50 (medium protective dose) at the 14th day
# Procedure: Albino Charles River mice (CD1 strain) weighing from 23 to 25 g, normally feed with a standard diet and water ad libitum were employed. Each animal has been intravenously (for systemic candidiasis, crytpococcosis, aspergillosis), intracranially (for intracranial cryptococcosis) or nasally (for pulmonary aspergillosis) treated with a suspension (0.2 ml containing 2.5×10^7 cells/ml) of the due microorganism in physiological. […]
property: ED50

Problem: Data request, read-out ED50, for C[C@@H](COC(F)(F)C(F)F)[C@](O)(Cn1cncn1)c1ccc(Cl)cc1Cl
Solution: 6.9 mg/kg

Problem: Data request, read-out ED50, for CCC(C)n1ncn(-c2ccc(N3CCN(c4ccc(OCC5COC(Cn6cncn6)(c6ccc(Cl)cc6Cl)O5)cc4)CC3)cc2)c1=O (stereo not shown) [Itraconazole, reference compound]
Solution: > 20 mg/kg

Problem: Data request, read-out ED50, for C[C@@H](COC(F)(F)C(F)F)[C@](O)(Cn1cncn1)c1ccc(F)cc1F
Solution: 9.3 mg/kg

Problem: Data request, read-out ED50, for OC(Cn1cncn1)(Cn1cncn1)c1ccc(F)cc1F [Fluconazole, reference compound]
Solution: > 100 mg/kg
